Test: collision cross section in nitrogen (drift tube, single-field); higher = larger gas-phase ion size;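 note: chemical standards at 10 µM analysed by drift tube IMS-QTOF MS in about 3.95 torr nitrogen, mean of duplicate injections differing ≤1%, mass error below 10 ppm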
Details: ion type: [M+Na]; ion source: ESI; ion mode: Positive
QUANTITY KIND: collision cross section in nitrogen (Å²)
Answers are plain numbers, in Å².

Take a look at these entries with their results.
| COMPOUND | collision cross section in nitrogen, Å² |
| --- | --- |
| CCn1cc(C(=O)O)c(=O)c2cc3c(cc21)OCO3 [Oxolinic acid] | 165 |
| CCCCOC(=O)COC(=O)c1ccccc1C(=O)OCCCC | 193.5 |
| CNC(=O)ON=CC(C)(C)SC [Aldicarb] | 147.5 |
| O=C(Nc1ccccc1SSc1ccccc1NC(=O)c1ccccc1)c1ccccc1 [2,2'-Dibenzoylaminodiphenyl disulfide] | 203 |

Quick batch: collision cross section in nitrogen for everything below.
1. N#C[C@@H]1CC(F)(F)CN1C(=O)CNC1CC2CCC(C1)N2c1ncccn1 (stereo partly drawn)
2. CCNP(=S)(OC)O/C(C)=C/C(=O)OC(C)C (stereo not drawn) [Propetamphos]
3. CC(C)NCC(O)COc1ccc(CC(N)=O)cc1 (stereo not drawn) [Atenolol]

Result:
1: 182.7; 2: 170.5; 3: 164.2

###

Task for the reader: assign each of the following compounds its reported collision cross section in nitrogen.
Test: collision cross section in nitrogen (drift tube, single-field); higher = larger gas-phase ion size
Details: ion type: [M+H]; ion source: APCI; ion mode: Positive
Where a name gives a salt, the structure may show the parent alone.
One number for each entry, in Å².

Take a look at these entries with their results.
| COMPOUND | REPORTED |
| --- | --- |
| CNC1(c2ccccc2Cl)CCCCC1=O (stereo not drawn) [Ketamine hydrochloride] | 149.7 |
| CC[C@H]1OC(=O)[C@H](C)[C@@H](O[C@H]2C[C@@](C)(OC)[C@@H](O)[C@H](C)O2)[C@H](C)[C@@H](O[C@@H]2O[C@H](C)C[C@H](N(C)C)[C@H]2O)[C@](C)(O)C[C@@H](C)C(=NOCOCCOC)[C@H](C)[C@@H](O)[C@]1(C)O | 277.7 |

Now consider the entry below.
Request: // query collision cross section in nitrogen value for entry `CC(C)c1nnc2ccc(-c3ocnc3-c3cc(F)ccc3F)cn12`
Result: 177.3

###

Assay: collision cross section in nitrogen (drift tube, single-field); higher = larger gas-phase ion size
Settings: ion type: [M-H]; ion source: ESI; ion mode: Negative
Where a name gives a salt, the structure may show the parent alone.
QUANTITY KIND: collision cross section in nitrogen (Å²)
One number for each entry, in Å².

Take a look at these entries with their results.
| COMPOUND | collision cross section in nitrogen, Å² |
| --- | --- |
| CC(=O)Nc1ccc2c(c1)Cc1cc(NC(C)=O)ccc1-2 [2,7-Acetylaminofluorene] | 174.7 |
| CC(C)CC(C)(c1ccc(O)cc1)c1ccc(O)cc1 [4,4'-(4-Methylpentane-2,2-diyl)diphenol] | 175.3 |

Quick batch: collision cross section in nitrogen for everything below.
1. COc1cc(OC)nc(NC(=O)NS(=O)(=O)c2ncccc2OCC(F)(F)F)n1 [Trifloxysulfuron-sodium]
2. Cc1cc(SCc2sc(-c3ccc(C(F)(F)F)c(F)c3)nc2C)ccc1OCC(=O)O
3. Oc1ccc(Cl)cc1 [4-Chlorophenol]
4. Oc1c(O)c(Cl)c(Cl)c(Cl)c1Cl [Tetrachlorocatechol]

Result:
190.2
199.5
120.2
135.1

Quick batch: collision cross section in nitrogen for everything below.
1. O=C(O)COc1ccc(Cl)cc1 [4-Chlorophenoxyacetic acid]
2. COc1ccc2cc(S(=O)(=O)N[C@H](CC(=O)N[C@H](Cc3ccc(CN4[C@H](C)CCC[C@@H]4C)cc3)C(=O)N(C)C(C)C)c3ccc4c(c3)OCO4)ccc2c1
3. C[C@]12CCC(=O)C(O)=C1CC[C@@H]1[C@@H]2CC[C@]2(C)C(=O)CC[C@@H]12 [4-Hydroxyandrostenedione]
4. I [Potassium iodide]
5. CCOc1ccc(NC(=O)OC(C)C)cc1OCC [Diethofencarb]
6. Cc1cc2c(cc1C(F)(F)F)N(C(=O)Nc1ccc(Oc3cccnc3C)nc1)CC2
7. CCCCCCCCCCCC(=O)OC(C)C [Isopropyl Laurate]
8. CCCCCCCCCCCC(=O)OCC [Ethyl dodecanoate]

Result:
1. 140.9
2. 271.5
3. 180
4. 92.6
5. 171.9
6. 209.1
7. 165.3
8. 162.3

Quick batch: collision cross section in nitrogen for everything below.
1. CCCCCCCCC(CCCCCC)C(=O)O (stereo unspecified) [2-Hexyldecanoic acid]
2. CCOP(=S)(S)OCC [O,O′-Diethyl hydrogen dithiophosphate]
3. Cc1cn([C@H]2C[C@H](N=[N+]=[N-])[C@@H](CO)O2)c(=O)[nH]c1=O [3'-Azido-3'-deoxythymidine]
4. Cc1ccc(S(=O)(=O)O)c(C)c1 [Sodium m-xylene-4-sulfonate]
5. CCC(CC)C(=O)O [2-Ethylbutyric acid]
6. C=C(C)[C@H]1Cc2c(ccc3c2O[C@@H]2COc4cc(OC)c(OC)cc4[C@@H]2C3=O)O1 [Rotenone]

Result:
176.7
135
159.9
138.9
127.6
199

Quick batch: collision cross section in nitrogen for everything below.
1. O=C(Nc1ccccc1)Nc1ccnc(Cl)c1 [Forchlorfenuron]
2. O=C(NC(=O)c1ccccc1Cl)Nc1ccc(OC(F)(F)F)cc1 [Triflumuron]
3. OCCOCCN1CCN(C2=Nc3ccccc3Sc3ccccc32)CC1 [Quetiapine fumarate]
4. Nc1ccc2cc(S(=O)(=O)O)ccc2c1 [6-Aminonaphthalene-2-sulfonic acid]
5. NS(=O)(=O)c1ccc(Cl)cc1 [4-Chlorobenzenesulphonamide]
6. CC(=O)NCc1ccccc1 [N-Benzylacetamide]

Result:
155.2
179.1
183.5
150.3
134.9
135.1
